# Assay Procedure: chemical genetic growth profiling, strain panel (AID 1159580);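 note: tested at 20 µM; growth read once vehicle control cultures reached saturation at 30 °C; lower values mean less growth of the strain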
# Condition Info: S. cerevisiae deletion strains, growth OD, locus YDR388W
About 2,000 (36%) of roughly 5,500 compounds were called active. Roughly 18% stayed inconclusive and do not appear here. Cut-off read from the data, not from the text of the source: active = normalized growth mostly below about 0.91 (no sharp cut-off); inconclusive = no clear call, values can overlap the other calls; inactive = mostly above about 0.92. The list shows a part of the results. Where a SMILES comes first, the peptide text is derived from it. Bridges are numbered along the chain shown (N, C = ends). Side-chain parts run from the residue outwards. [ ]: non-standard residue; d: D form. The star is where a group is joined. Octanoyl(6-Me) = CCC(C)CCCCC(=O)*; X1 = CCC(C)C(N)C1=NC(C(=O)*)CS1; Orn = NCCC[CH](N)C(=O)O; Dab = NCC[CH](N)C(=O)O
Write down one outcome, taken from T for active, F for inactive

Solved entries (count: 6):
{"Compound": "CCC(C)CCCCC(=O)NC(CCN)C(=O)NC(C(=O)NC(CCN)C(=O)NC1CCNC(=O)C(C(C)O)NC(=O)C(CCN)NC(=O)C(CCN)NC(=O)C(CC(C)C)NC(=O)C(Cc2ccccc2)NC(=O)C(CCN)NC1=O)C(C)O (centres undefined) ({Octanoyl(6-Me)}-[Dab]T[Dab][Dab][Dab]FL[Dab][Dab]T; lactam 4-C; configuration not given here)", "Label Class": "F"}
{"Compound": "COC1(C)CCC2OC2(C)CCC2C1CC2(C)C (centres undefined)", "Label Class": "F"}
{"Compound": "CCOC([O-])=Nc1c[n+](N2CCOCC2)no1", "Label Class": "F"}
{"Compound": "COc1ccc2c(c1)[C@]13CCCC[C@H]1[C@H](C2)N(C)CC3", "Label Class": "F"}
{"Compound": "CCOc1cccc(C(=O)c2ccc(O)c(O)c2O)c1", "Label Class": "T"}
{"Compound": "O=C(O)c1cc([N+](=O)[O-])ccc1NCCCc1ccccc1", "Label Class": "F"}

Outcome logged for COC(=O)C[C@H]1C(C)(C)[C@@H](O)[C@@H]2CC3=C4C=C(OC)O[C@@H](c5ccoc5)[C@]4(C)CCC3[C@@]1(C)C2=O (some centres undefined) in this assay:
F

Ok, now O=C(CCc1ccc(O)cc1)c1c(O)cc(O)cc1O[C@@H]1O[C@H](CO)[C@@H](O)[C@H](O)[C@H]1O
F

Ok, now COc1ccc([C@H]2COc3c(ccc(O)c3OC)C2)c(OC)c1O
F

Ok, now CCC(C)C(N)C1=NC(C(=O)NC(CC(C)C)C(=O)NC(CCC(=O)O)C(=O)NC(C(=O)NCCCCC2NC(=O)C(CC(N)=O)NC(=O)C(CC(=O)O)NC(=O)C(Cc3cnc[nH]3)NC(=O)C(Cc3ccccc3)NC(=O)C(C(C)CC)NC(=O)C(CCCN)NC2=O)C(C)CC)CS1 (stereo not drawn) (cyclo(DNK([Ile-Glu-Leu-X1])[Orn]IFH); configuration not given here)
F

Ok, now CC(=O)CC1CCCCN1 (centres undefined)
F

Ok, now COc1cc(-c2coc3cc(O[C@@H]4O[C@H](CO)[C@@H](O)[C@H](O)[C@H]4O)c(OC)c(O)c3c2=O)cc(O)c1OC
F

Ok, now CCc1cccc2c3c([nH]c12)C(CC)(CC(=O)O)OCC3 (centres undefined)
F

Ok, now CC(C)CC1NC(=O)C(CCCN)NC(=O)C(C(C)C)NC(=O)C2CCCN2C(=O)C(Cc2ccccc2)NC(=O)C(CC(C)C)NC(=O)C(CCCN)NC(=O)C(C(C)C)NC(=O)C2CCCN2C(=O)C(Cc2ccccc2)NC1=O (centres undefined) (cyclo(FPV[Orn]LFPV[Orn]L); configuration not given here)
F
